# Tested on: Escherichia coli IAI1
# testDescription: fold change of Putrescine concentration vs plate DMSO controls (fold change (ratio)); higher = more amine produced, active = hit call of the paper (significant change in both replicates, either direction);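 for the amine columns active = adjusted P below 0.05 in both replicates with a change the same way and a mean fold change under 0.8 or over 1.25; inactive = the rest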
# cond: incubation time: 27 h, anaerobic, 37 °C
Counter-ions that a name gives are not always drawn.
In this exercise, the only acceptable responses are YES = active, NO = inactive

C[C@@H](CN1CC(=O)NC(=O)C1)N1CC(=O)NC(=O)C1 [Dexrazoxane hydrochloride] (20 µM) | NO

Record request — test call for OC[C@H]1O[C@@H](O[C@@H]2[C@@H](CO)OC(O)(CO)[C@H]2O)[C@H](O)[C@@H](O)[C@H]1O (mixture of isomers) [Lactulose] (50 µM)
NO

Record request — test call for Oc1c(I)cc(Cl)c2cccnc12 [Clioquinol] (20 µM)
NO

Record request — test call for CCCC(=O)N1CCCN(c2nc(N)c3cc(OC)c(OC)cc3n2)CC1 [Bunazosin hydrochloride] (20 µM)
NO

Record request — test call for CC(C)(C)NCC(O)c1cc(O)cc(O)c1 (stereo unspecified) [Terbutaline hemisulfate] (20 µM)
NO

Record request — test call for CCCNC(C)C(=O)Nc1c(C)csc1C(=O)OC (stereo unspecified) [Articaine hydrochloride] (20 µM)
NO

Record request — test call for NC(=O)C(c1ccccc1)(c1ccccc1)[C@@H]1CCN(CCc2ccc3c(c2)CCO3)C1 [Darifenacin hydrobromide] (20 µM)
NO

Record request — test call for CNCCC(Oc1ccccc1OC)c1ccccc1 (stereo unspecified) [Nisoxetine hydrochloride] (20 µM)
NO

Record request — test call for CCCCCCCCCCCCCCCC[N+](C)(C)CCN(Cc1ccc(OC)cc1)c1ncccn1 [Thonzonium bromide] (20 µM)
NO

Record request — test call for CC1=Nc2ccc(Cl)cc2S(=O)(=O)N1 [Diazoxide] (20 µM)
NO

Record request — test call for CC(C)NCC(O)c1ccc2ccccc2c1 (stereo unspecified) [Pronethalol hydrochloride] (20 µM)
NO

Record request — test call for COCC(=O)Nc1c(I)c(C(=O)NCC(O)CO)c(I)c(C(=O)N(C)CC(O)CO)c1I (stereo unspecified) [Iopromide] (20 µM)
NO

Record request — test call for CN(C)c1ccc(O)c2c1C[C@H]1C[C@H]3[C@H](N(C)C)C(=O)C(C(N)=O)=C(O)[C@@]3(O)C(=O)C1=C2O [Minocycline hydrochloride] (20 µM)
YES

Record request — test call for O=C(CCCN1CCC(O)(c2ccc(Br)cc2)CC1)c1ccc(F)cc1 [Bromperidol] (20 µM)
NO

Record request — test call for CCN(CC)CCNC(=O)c1cc(Cl)c(N)cc1OC [Metoclopramide monohydrochloride] (20 µM)
NO

Record request — test call for CCOc1ccc(NC(C)=O)cc1 [Phenacetin] (20 µM)
NO

Provenance of the data: the supplement of paper PMC12494721
